Data provenance is patent US20050282743A1.

Target: T1, GST-KIAA1526 PDZ domain 1 (Homo sapiens (Human)), Q9P202
T1 chain: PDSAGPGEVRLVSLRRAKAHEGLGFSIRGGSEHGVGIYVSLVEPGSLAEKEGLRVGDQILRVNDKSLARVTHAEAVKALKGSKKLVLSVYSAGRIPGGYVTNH
Test: G' assay; note: key of the grades not given here
Please go through the items and note down their Classification.
Numbers only, in A450 class.

Solved cases (3 shown):
[[record]]
binder = "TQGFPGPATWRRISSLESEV (modifications not checked) [NMDA Glutamate Receptor 2C (cysteine-free)]"
reported_property = "Classification"
output_unit = "A450 class"
readout_number = 3

[[record]]
binder = "AWDDSARAAGGQGLHVTAL (modifications not checked) [LPAP]"
reported_property = "Classification"
output_unit = "A450 class"
readout_number = 1

[[record]]
binder = "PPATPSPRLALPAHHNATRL (modifications not checked) [Na+/Pi cotransporter 2]"
reported_property = "Classification"
output_unit = "A450 class"
readout_number = 1


Problem: Bench note: what Classification did SSPTYRALLLQGPSQSSSEA (modifications not checked) [GAIP (G-alpha interacting protein) RGS 19] show?
Result: 1
